Biological target: COX-2 (Homo sapiens, UniProt P35354)
Sequence (P35354 18-604): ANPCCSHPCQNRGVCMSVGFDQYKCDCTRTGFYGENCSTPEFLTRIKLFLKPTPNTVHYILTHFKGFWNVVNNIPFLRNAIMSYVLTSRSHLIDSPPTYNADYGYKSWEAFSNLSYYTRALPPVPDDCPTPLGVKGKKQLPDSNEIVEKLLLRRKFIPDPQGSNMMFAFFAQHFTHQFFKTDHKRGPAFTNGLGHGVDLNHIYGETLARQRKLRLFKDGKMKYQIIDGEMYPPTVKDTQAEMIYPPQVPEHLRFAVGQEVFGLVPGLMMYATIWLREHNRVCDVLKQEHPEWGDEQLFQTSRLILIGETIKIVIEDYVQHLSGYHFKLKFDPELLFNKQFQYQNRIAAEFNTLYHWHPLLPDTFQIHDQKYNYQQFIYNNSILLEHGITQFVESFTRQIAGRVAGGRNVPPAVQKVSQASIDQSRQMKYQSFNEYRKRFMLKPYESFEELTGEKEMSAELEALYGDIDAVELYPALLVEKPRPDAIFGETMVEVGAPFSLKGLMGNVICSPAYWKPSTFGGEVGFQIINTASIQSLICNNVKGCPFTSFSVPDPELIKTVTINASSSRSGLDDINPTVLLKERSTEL
Test: Whole cell COX-2 assay using CHO transfected cell line (PGE2 radioimmunoassay)
Type: cell-based
Design: expressed in transfected cells; host or cells: CHO [hCOX-2], stably transfected with pCDNAIII
Conditions: CHO [hCOX-2] cells; PGE2 synthesis in response to arachidonic acid
assay_metric: pIC50
Note on pIC50: it is the negative log10 of concentration, concentration in mol/L.

Some solved cases for reference:
C[C@H](CO)COC1=C(c2ccc(S(C)(=O)=O)cc2)C(C)(C)OC1=O [Example 9]
6.40
C=C(C)OC1=C(c2ccc(S(C)(=O)=O)cc2)C(C)(C)OC1=O [Example 7]
7.15
CC(CO)OC1=C(c2ccc(S(C)(=O)=O)cc2)C(C)(C)OC1=O (stereo not drawn) [Example 12]
6.30

Per the records, this compound ( CC1(C)OC(=O)C(OC2CCC3(CC2)OCCO3)=C1c1ccc(S(C)(=O)=O)cc1 [Example 16] ) has pIC50 equal to 6.40

pIC50 reported for this compound C=CCOC1=C(c2ccc(S(C)(=O)=O)cc2)C(C)(C)OC1=O [Example 15] : 6.70

CC1(C)OC(=O)C(OC2CCC(F)(F)CC2)=C1c1ccc(S(C)(=O)=O)cc1 [Example 17] yielded pIC50 of 6.52

Form field pIC50, entry CC1(C)OC(=O)C(OC2CCCC2=O)=C1c1ccc(S(C)(=O)=O)cc1 (stereo not drawn) [Example 24] : 6.40

Consider C[C@@H](CO)COC1=C(c2ccc(S(C)(=O)=O)cc2)C(C)(C)OC1=O [Example 8] . Its measured pIC50 is 6.30

get_value(item= CC1(C)OC(=O)C(OCC2(CO)CC2)=C1c1ccc(S(C)(=O)=O)cc1 [Example 21] , readout=pIC50) returns 6.22
